Target: Cruzipain (Trypanosoma cruzi)
Sequence (P25779 whole entry): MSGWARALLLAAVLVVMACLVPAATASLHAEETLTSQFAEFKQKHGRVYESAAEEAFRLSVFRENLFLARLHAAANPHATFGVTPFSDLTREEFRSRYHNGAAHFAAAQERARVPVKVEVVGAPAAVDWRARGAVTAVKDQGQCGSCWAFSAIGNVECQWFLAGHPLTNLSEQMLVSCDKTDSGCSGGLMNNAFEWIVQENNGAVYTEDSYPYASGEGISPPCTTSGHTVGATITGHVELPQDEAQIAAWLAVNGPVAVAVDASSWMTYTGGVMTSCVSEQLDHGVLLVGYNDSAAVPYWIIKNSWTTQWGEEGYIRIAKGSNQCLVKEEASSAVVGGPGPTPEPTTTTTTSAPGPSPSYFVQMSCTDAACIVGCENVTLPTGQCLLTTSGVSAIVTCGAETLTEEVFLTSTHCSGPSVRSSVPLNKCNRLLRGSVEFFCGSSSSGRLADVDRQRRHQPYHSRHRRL
Assay: Inhibition of Trypanosoma cruzi cruzain by Flexstation microplate spectrofluorimetry
Readings of IC50 for the listed compounds
Could you give me the number in µM? Just the number is fine.

Check out these entries, answers already filled in.
O=C(COC(=O)c1cc(-c2ccco2)nc2ccccc12)NCc1ccc2c(c1)OCO2	30
COC(=O)c1ccc(-c2nc(-c3ccc(Br)o3)no2)cc1	30
COc1ccc(S(=O)(=O)Nc2nc3ccccc3nc2NCc2ccc3c(c2)OCO3)cc1	12
O=C(Nc1nc(-c2ccc(S(=O)(=O)N3CCCCCC3)cc2)cs1)c1cccs1	12
O=C(CSCc1ccc(Cl)cc1)c1ccco1	120

In: I'd like to know its IC50. The compound in question is "O=C(c1ccccc1)c1cn(CC(=O)N2CCCC2)c2ccccc12"
Out: 120

In: Try this compound next: "CCSc1nnc(NC(=O)c2ccc(Br)s2)s1"
Out: 12

In: Try this compound next: "O=C(Cn1c(=O)oc2ccccc21)Nc1oc(-c2ccccc2)c(-c2ccccc2)c1O"
Out: 12

In: Try this compound next: "O=C(Nc1nc(-c2cccc(Br)c2)cs1)Oc1ccccc1"
Out: 30

In: Try this compound next: "C=C(C)CSc1cc(N)c(C#N)c(-c2ccc(C)cc2)c1C#N"
Out: 12
